# System: SK-MEL-5 melanoma
# protocol.notes: NCI-60 one-dose screen, 48 h
# recorded.conditions: 10 µM unless noted
This is part of a sample that, as a whole, favours compounds with a hit. Of some 83,000 tested, about 20% had one in any assay. Calls of active or inactive are those of the source. The calls were made as follows: active = growth percent below 10; inactive = the rest.
Just give me one of these, please: TRUE (active), FALSE (inactive)

Per the assay record, what outcome was assigned to `Cn1cnc(-c2cc3nccc(Oc4ccc(NC(=S)NC(=O)Cc5ccccc5)cc4F)c3s2)c1` ?
FALSE

Would you mind telling me which call this test gave `C#Cc1cccc(Nc2ncnc3cc4c(cc23)OCCOCCOCCO4)c1` ?
FALSE

Identify the outcome logged in this assay for the molecule shown: CC[C@@H]1C(=O)N(C)c2cnc(Nc3ccc(C(=O)NC4CCC(N5CCN(CC6CC6)CC5)CC4)cc3OC)nc2N1C(C)C (some centres undefined)
TRUE

Can you look up the reported call for `Brc1ccc([I+]c2ccc(Br)cc2)cc1` for me?
TRUE

Per the assay record, what outcome was assigned to `NC1=Nc2cc(OCCCN3Cc4ccccc4C3)c(OCC3CC3)cc2C12CCCC2` ?
TRUE

# fetch the recorded call for `CCN1CCN(Cc2ccc(NC(=O)Nc3nc(-c4cc(OC)c(OC)c(OC)c4)cs3)cc2C(F)(F)F)CC1` here
TRUE

For this molecule, state the assay outcome: `Cc1cccc(NC(=O)[C@@H]2c3ccccc3C(=O)N(c3ccc(Cl)cc3)[C@H]2c2ccc(Cl)cc2)n1`
FALSE

Short answer needed: outcome of this test for `COc1ccc2c(c1OC)C(=O)O[C@@H]2[C@H]1c2c(c(C#CC#Cc3ccc(F)c(F)c3)c3c(c2OC)OCO3)CCN1C` ?
FALSE

GET /call?item= `Clc1ccc2c(NCCCNCc3ccc4c(c3)OCO4)ccnc2c1` returns the recorded outcome of this test.
TRUE

###

# Test system: T-47D breast
# protocol.notes: NCI-60 one-dose screen, 48 h
# recorded.conditions: 10 µM unless noted
About 83,000 compounds went through this panel and 20% of them were active in at least one assay; those are over-represented in the sample as a whole. The source made the active and inactive calls. The calls were made as follows: active = growth percent below 10; inactive = the rest.
// one of class 1 (active), class 0 (inactive), no free text

Assay result, entry `COc1ccc(Cc2cc(-c3ccccc3C)n[nH]c2=O)cc1` — outcome?
class 0

Please indicate how the test categorized `C#Cc1cccc(Nc2ncnc3cc4c(cc23)OCCOCCOCCO4)c1` .
class 0

Dear colleague, could you share the recorded outcome for `Cn1cc(-c2ccc(F)c(C(F)(F)F)c2)nc1C1CCN(c2ncnc3[nH]ncc23)CC1` when you have a moment?
class 0

# fetch the recorded call for `C=C1C(=O)O[C@H]2[C@H]1CC/C(CNC(=O)c1cc3cc(OC)ccc3[nH]1)=C\CC[C@@]1(C)O[C@@H]21` here
class 1

State the result this test recorded for `CCNC(=O)C#Cc1ccc2c(C(=Nc3ccc(CN(C)C)cc3)c3ccccc3)c(O)[nH]c2c1` .
class 0

Lab log entry: `C=C1C[C@H](O)[C@H](Br)C(C)(C)[C@@]12CCC(C)=C(Cl)C2` — outcome as called in the assay?
class 0

For `CN(c1ncccc1CNc1nc(Nc2ccc3c(c2)CC(=O)N3)ncc1C(F)(F)F)S(C)(=O)=O` , which call appears in the assay record?
class 1

Give the logged outcome of this assay for the following molecule: `NC1=Nc2cc(OCCCN3Cc4ccccc4C3)c(OCC3CC3)cc2C12CCCC2`
class 1

Per the records of this test, what outcome belongs to `COc1ccc(-c2ccc3c(N4CCOC[C@@H]4C)nc(N4CCOC[C@@H]4C)nc3n2)cc1CO` ?
class 1

Answer briefly: the call reported for `O=C(Nc1ccc(Nc2ncnc3sc4c(c23)CCOC4)cc1)Nc1ccc(Cl)c(C(F)(F)F)c1` in this assay.
class 0

Any idea what this test logged for `Cn1ncc(Cl)c1-c1cc(C(=O)N[C@H](CN)Cc2cccc(F)c2)sc1Cl` ?
class 1

Hi team, can someone confirm the assay call for `Clc1nc(Cl)c2ncn(C/C=C\Cn3cnc4c(Cl)nc(Cl)nc43)c2n1` ?
class 1

Tell me the assay call for `Cc1c(Cn2c(C)nc3c(C(=O)O)cc(N4CCOCC4)cc32)cccc1C(F)(F)F` please.
class 0

Kindly provide the recorded test outcome for the following molecule: CC1(O)CCC(Nc2cc(-c3ccc(C(F)(F)F)cc3)c(C#N)c3nc4ccccc4n23)CC1 (centres undefined)
class 0

Outcome logged for `COc1cc(-c2nc(C(=O)Nc3ccc(C)cc3)nn2-c2ccc(F)c(F)c2)cc(OC)c1OC` in this assay:
class 0

# lookup: test call for `CN1CCN(Cc2ccc(NC(=O)c3[nH]ncc3Nc3ncnc4sc5c(c34)CCCC5)cc2)CC1`
class 1

Entry `CCN1CCN(CCCN(C[C@H]2Cc3ccccc3CN2)[C@H]2CCCc3cccnc32)CC1` : call = ?
class 0

Per the assay record, what outcome was assigned to `OCCNC(=S)Nc1ccc(-c2nc(N3C[C@H]4CC[C@@H](C3)O4)c3cccn3n2)cc1` ?
class 1

What was the test verdict on `O=C(Nc1cccc(Cl)c1)Nc1ncc(CCNc2ncnc3ccsc23)s1` ?
class 1

###

# Test system: PC-3 prostate
# protocol.notes: NCI-60 one-dose screen, 48 h (100 = growth as untreated, 0 = no growth, -100 = all killed)
# recorded.conditions: 10 µM unless noted
Compounds without any hit were thinned out: in the full panel of roughly 83,000, 20% have a hit.
Would you kindly list growth for each of these compounds?
# number only, unit % dropped from output

Annotate the compound CC(=Nc1ccccc1)C1=C(O)C(Cc2ccc(O)cc2)NC1=O (centres undefined) with its measured growth.
15.7

Respond only with growth recorded for `CCCCCCCC(=O)SCC/C=C/[C@@H]1CC(=O)NCc2cccc(n2)C2=N[C@@](C)(CS2)C(=O)N[C@@H](C(C)C)C(=O)N1`
26.9

Identify measured growth corresponding to `CCN1CCN(c2nc(C)cc(N(CCCNc3ccnc4cc(Cl)ccc34)Cc3ccc4c(c3)OCO4)n2)CC1`
24.7

# return recorded growth for entry `COc1cnc2c(c1)C(=O)c1c-2n(CCCNC2=NCCS2)c(=O)c2cc(Cl)ccc12`
20.5

###

# Tested on: COLO 205 colon
# protocol.notes: NCI-60 one-dose screen, 48 h (100 = growth as untreated, 0 = no growth, -100 = all killed)
# recorded.conditions: 10 µM unless noted
Compounds without any hit were thinned out: in the full panel of roughly 83,000, 20% have a hit. Active and inactive are the calls of the source. How the source made its calls: active means growth percent below 10; inactive means the rest.
Record form. Attribute: growth. Fill in for each entry.

# return recorded growth for input O=C1CC(c2ccc(Cl)cc2)c2ncn(-c3cccc(Cl)c3)c2N1 (stereo not given)
97.7% (inactive)

Give me measured growth, please, for this molecule: `O=C(Nc1cccc([N+](=O)[O-])c1)c1ccc(Cl)c(Cl)c1`
89.7% (inactive)

Name the recorded growth of the molecule listed here: `Cc1c(CN2CCN(C(=O)[C@H](C)O)CC2)sc2c(N3CCOCC3)nc(-c3cnc(N)nc3)nc12`
-32.3% (active)

Please report growth for the following molecule: `Cc1[nH]n(C(N)=S)c(=O)c1N=Nc1ccc(S(=O)(=O)Nc2ccncn2)cc1`
112% (inactive)

Tell me measured growth for `C[C@]12O[C@H](C[C@]1(O)CO)n1c3ccccc3c3c4c(c5c6ccccc6n2c5c31)CNC4=O` please.
-84.9% (active)

Identify measured growth corresponding to `CCN(CCN(C)C)C(=O)CNCc1cc(C(N)=O)ccn1`
108% (inactive)

Give recorded growth. `C#Cc1cccc(Nc2ncnc3cc(OC)c(OCCCCCCC(=O)NO)cc23)c1`
-65% (active)

Given `Cc1cnc(NC(=O)Nc2cc(Br)c(C)cc2OC[C@@H]2CNCCO2)cn1` , respond with its growth.
3.34% (active)

Annotate the molecule `Cc1cc(-c2cc(O)ccc2Cl)cc2nnc(Nc3ccc(OCCN4CCCC4)cc3)nc12` with its measured growth.
-61.4% (active)

Identify growth associated with the molecule `O=c1sn(-c2cccc3ccccc23)c(=O)n1Cc1ccccc1`
89.8% (inactive)

Recall and state the measured growth for `Cc1cc(Nc2cc(N3CCN(C)CC3)nc(Sc3ccc(NC(=O)C4CC4)cc3)n2)n[nH]1` .
-29.3% (active)

// Input: `COC(=O)c1[nH]cnc1/N=N/N(C)CCO` . Output its growth only.
120% (inactive)

Consider the molecule `CCc1nc2cc(/C=C/C(=O)NO)ccc2c(=O)n1CCc1ccc(F)cc1` . State its measured growth.
-35.7% (active)

Quote growth reported for `CNC(=O)c1cc(COc2nnc(Nc3ccc(Cl)cc3)c3ccoc23)ccn1` please.
72.4% (inactive)

Dear colleague, please send me the reported growth for CCOC(=O)C1=C(C)NC(=O)NC1c1cc(=O)oc2ccc(C)cc12 (stereo not given) when you can.
105% (inactive)

Annotate the molecule NC(=O)N1N=C(c2ccc(Cl)cc2)CC1c1cn(-c2ccccc2)nc1-c1ccc(Cl)cc1 (stereo not given) with its measured growth.
81.9% (inactive)

Give the reported value of growth for this record: `C=CC(=O)Nc1cccc(Oc2nc(Nc3ccc(N4CCN(C)CC4)cc3)nc3ccsc23)c1`
-83.3% (active)

Please report growth for the following molecule: `CN(N)c1nc2sc3c(c2c(=O)[nH]1)CCCC3`
100% (inactive)

Given `N#Cc1ccc(-n2nnc3ccccc32)cc1C#N` , respond with its growth.
104% (inactive)

Using the record for O=C1CC(c2ccc3c(c2)OCO3)c2ncn(-c3ccc(Cl)cc3)c2N1 (stereo not given) , state its measured growth.
99.5% (inactive)

Supply growth value. Item: `COCc1c(-c2ccc(NC(=O)Nc3cc(C(F)(F)F)ccc3F)c(F)c2)c2c(N)ncnn2c1CN1CCOCC1`
-88.8% (active)

Please report growth for the following molecule: `O=C(NO)c1ccc(Cn2c(=O)n(CCc3ccccc3)c(=O)c3ccccc32)cc1`
4.15% (active)

Please look at this molecule and report its growth: `C=CC(=O)Nc1cc(Nc2nccc(-c3cn(C)c4ccccc34)n2)c(OC)cc1N(C)CCN(C)C`
-81.1% (active)

Provide one value: measured growth of `CCN1CCN(c2cc(C)nc(N(CCCNc3ccnc4cc(Cl)ccc34)Cc3ccc4c(c3)OCO4)n2)CC1`
-82.6% (active)

Dear colleague, please send me the reported growth for `CC(C)c1cc(CNc2nc(Nc3cc(C4CC4)[nH]n3)cc(N3CCN(C)CC3)n2)on1` when you can.
-69.6% (active)

Respond only with growth recorded for `O=C(Cn1cncn1)Nc1ccc(-c2nc3ccccc3s2)cc1`
107% (inactive)

For the molecule `COc1cnc2c(c1)C(=O)c1c-2n(CCCN2CCC(O)CC2)c(=O)c2cc(Cl)ccc12` , report growth.
47.1% (inactive)

Provide growth value for the following molecule: `O=C(Cn1ccc2ccccc21)Nc1ccc(-c2nc3ccccc3s2)cc1`
101% (inactive)

Annotate the molecule `Cc1nc2cc(-c3nn(C(C)C)c4ncnc(N)c34)ccc2o1` with its measured growth.
-24.9% (active)

Return value of growth for input COc1cccc2cc(-c3nc(C4CCC(C(=O)O)CC4)n4ncnc(N)c34)[nH]c12 (stereo not given) , no commentary.
1.83% (active)

Identify the reported growth for the following entry. `Nc1c(C(=O)c2ccccc2)sc2nc(-c3cccs3)cc(-c3cccs3)c12`
35.9% (inactive)

Please report the measured growth for `COc1cc(Nc2c(C#N)cnc3cc(OCCCN4CCN(C)CC4)c(OC)cc23)c(Cl)cc1Cl`
6.9% (active)

Supply growth value. Item: `COc1cc(NCCN(CC(C)C)CC(C)C)c2ncc(C)cc2c1`
49.6% (inactive)

Note down growth recorded for `CN(C)C1CCN(C(=O)c2ccc(NC(=O)Nc3ccc(-c4nc(N5CCOCC5)nc(N5CCOCC5)n4)cc3)cc2)CC1`
-31.4% [2.5 µM] (active)

Specify reported growth for the molecule shown: `NC[C@@](O)(c1ccc(Cl)cc1)c1ccc(-c2cn[nH]c2)cc1`
-22.8% (active)

Supply growth value. Item: `N#Cc1cc2[nH]c3ccc(OC(F)(F)F)cc3c2oc1=O`
86.8% (inactive)

Give the value of growth reported for the following: `COC(=O)[C@]12CC[C@@H](C)[C@H](C)[C@@H]1C1=CC[C@@H]3[C@@]4(C)C[C@@H](OC(=O)/C=C/c5ccccc5)[C@H](O)[C@@](C)(CO)[C@@H]4[C@H](O)C[C@@]3(C)[C@]1(C)CC2`
-58.6% (active)

Specify reported growth for the molecule shown: `Brc1ccc([I+]c2ccc(Br)cc2)cc1`
-28.7% (active)

Query growth for CC1(C=O)NC(=O)NC1=O (stereo not given)
100% (inactive)

Specify reported growth for the molecule shown: `COc1ccc2c(OCc3nnc4ccc(-c5ccccc5)nn34)ccnc2c1`
95.3% [2.5 µM] (inactive)

Origin of measurements: PubChem BioAssay (NCI)
